Counter-ions that a name gives are not always drawn.
Consider the following compounds; for each one, report its melting point.

Value of melting point reported for the compound CC12CCNCC1Oc1ccc(S(=O)(=O)c3ccccn3)cc12 (stereo not drawn) [Example 91] is 255 to 257 °C

Value of melting point reported for the compound CC1(C(F)F)NCCc2c1oc1cc(S(=O)(=O)c3cccc(F)c3F)ccc21 (single isomer, unassigned; enantiomer 1) (as salt: HCl) [Example 471] is 247 to 250 °C

Value of melting point reported for the compound CC(C)Oc1cccc(S(=O)(=O)c2ccc3c4c(oc3c2)C2(CCOC2)NCC4)c1 (single isomer, unassigned) (as salt: HCl) [Example 31] is 261 to 263 °C (dec.)

Value of melting point reported for the compound CC(C)C(=O)NCC1(C)NCCc2c1oc1cc(S(=O)(=O)c3cccc(F)c3)ccc21 (stereo not drawn) (as salt: HCl) [Example 491] is 220 to 225 °C (dec.)

Value of melting point reported for the compound CC12CCNCC1Oc1ccc(S(=O)(=O)c3ccccc3F)cc12 (stereo not drawn) [Example 99] is 260 to 262 °C

Value of melting point reported for the compound COc1ccc(Cl)cc1S(=O)(=O)c1ccc2c3c(oc2c1)CNCC3 [Example 80] is 258 to 259 °C

Value of melting point reported for the compound O=S1(=O)CCC2(CC1)NCCc1c2oc2cc(S(=O)(=O)c3cccc(F)c3)ccc12 (as salt: HCl) [Example 38] is 298 to 300 °C (dec.)

Value of melting point reported for the compound CC(C)Oc1cccc(S(=O)(=O)c2ccc3c(c2)OC2CNCCC32C)c1 (single isomer, unassigned) (as salt: HCl) [Example 20] is 184 to 185 °C

Value of melting point reported for the compound CCCCOc1cccc(S(=O)(=O)c2ccc3c(c2)OC2CNCCC32)c1 (stereo not drawn) (as salt: HCl) [Example 554] is 206 to 208 °C

Value of melting point reported for the compound CC(C)Oc1cccc(S(=O)(=O)c2ccc3c4c(oc3c2)C2(CCC2)NCC4)c1 (as salt: HCl) [Example 26] is > 200 °C (dec.)

Value of melting point reported for the compound COc1cc(OC)cc(S(=O)(=O)c2ccc3c(c2)OC2CNCCC32)c1 (stereo not drawn) (as salt: HCl) [Example 480] is 248 to 251 °C

Value of melting point reported for the compound CC1(C)CNCc2oc3cc(S(=O)(=O)c4cccc(F)c4)ccc3c21 [Example 86] is 291 to 293 °C

Value of melting point reported for the compound CC1(C)CNC2(CCOCC2)c2oc3cc([S+]([O-])c4cccc(F)c4)ccc3c21 (racemic) (as salt: HCl) [Example 47] is 248 to 253 °C

Value of melting point reported for the compound CC12CCNCC1Oc1ccc(S(=O)(=O)c3cc(F)cc(F)c3)cc12 (stereo not drawn) [Example 94] is 196 to 198 °C

Value of melting point reported for the compound N#Cc1ccccc1COc1cccc(S(=O)(=O)c2ccc3c(c2)OC2CNCCC32)c1 (stereo not drawn) (as salt: HCl) [Example 550] is 194 to 195 °C

Value of melting point reported for the compound CC1(C)CNC2(CCOC2)c2oc3cc(S(=O)(=O)c4cccc(F)c4)ccc3c21 (racemic) (as salt: HCl) [Example 46] is 263 to 268 °C

Value of melting point reported for the compound O=S(=O)(c1cc(F)cc(F)c1)c1ccc2c3c(oc2c1)C1(CCCOC1)NCC3 (racemic) [Example 24] is 85 to 95 °C

Value of melting point reported for the compound CC(C)Oc1cc(OC(CO)CCl)cc(S(=O)(=O)c2ccc3c(c2)OC2CNCCC32)c1 (stereo not drawn) (as salt: HCl) [Example 589] is 211 to 213 °C (dec.)

Value of melting point reported for the compound CC1(C)NCCc2c1oc1ccc(S(=O)(=O)c3cccc(F)c3)cc21 (as salt: HCl) [Example 42] is > 200 °C

Value of melting point reported for the compound CC12CCNCC1Oc1ccc(S(=O)(=O)c3cccc(Cl)c3)cc12 (stereo not drawn) [Example 104] is 216 to 218 °C

Value of melting point reported for the compound CC(=O)Nc1cccc(S(=O)(=O)c2ccc3c(c2)OC2CNCCC32)c1 (stereo not drawn) [Example 73] is 228 to 229 °C

Value of melting point reported for the compound CC12CCNCC1Oc1ccc(S(=O)(=O)c3cccc(Cl)c3)cc12 (stereo not drawn) [Example 100] is 160 to 162 °C

Value of melting point reported for the compound COc1cc2c(cc1S(=O)(=O)c1cccc(F)c1)C1CCNCC1O2 (stereo not drawn) [Example 89] is 197 to 204 °C

Value of melting point reported for the compound CC(C)Oc1cccc(S(=O)(=O)c2ccc3c(c2)OC2CNCCC32)c1F (stereo not drawn) (as salt: HCl) [Example 481] is 221 to 223 °C

Value of melting point reported for the compound O=S(=O)(c1ccc2c3c(oc2c1)C1(CCOCC1)NCC3)c1cccc(F)c1F (as salt: HCl) [Example 475] is 250 to 265 °C

Value of melting point reported for the compound O=S(=O)(c1cccc(F)c1)c1ccc2c3c(oc2c1)C(CF)(CF)NCC3 [Example 35] is 154 to 157 °C

Value of melting point reported for the compound O=S(=O)(c1ccc2c3c(oc2c1)C1(CCOC1)NCC3)c1cccc(F)c1F (single isomer, unassigned; enantiomer 1) [Example 473] is 269 to 272 °C

Value of melting point reported for the compound CN(C)C(=O)c1c(F)cccc1S(=O)(=O)c1ccc2c(c1)OC1CNCCC21 (stereo not drawn) (as salt: HCl) [Example 476] is 283 to 286 °C

Value of melting point reported for the compound COc1cccc(COc2cccc(S(=O)(=O)c3ccc4c(c3)OC3CNCCC43)c2)c1 (stereo not drawn) (as salt: HCl) [Example 575] is 247 to 248 °C

Value of melting point reported for the compound Cn1cnc(COc2cccc(S(=O)(=O)c3ccc4c(c3)OC3CNCCC43)c2)n1 (stereo not drawn) (as salt: HCl) [Example 560] is 187 to 190 °C

---

# system_name: human 5-HT6 receptor (Homo sapiens, UniProt P50406)
# Construct: host or cells: CHO-K1 cells, stably transfected; membranes prepared in house
# Sequence (P50406 whole entry): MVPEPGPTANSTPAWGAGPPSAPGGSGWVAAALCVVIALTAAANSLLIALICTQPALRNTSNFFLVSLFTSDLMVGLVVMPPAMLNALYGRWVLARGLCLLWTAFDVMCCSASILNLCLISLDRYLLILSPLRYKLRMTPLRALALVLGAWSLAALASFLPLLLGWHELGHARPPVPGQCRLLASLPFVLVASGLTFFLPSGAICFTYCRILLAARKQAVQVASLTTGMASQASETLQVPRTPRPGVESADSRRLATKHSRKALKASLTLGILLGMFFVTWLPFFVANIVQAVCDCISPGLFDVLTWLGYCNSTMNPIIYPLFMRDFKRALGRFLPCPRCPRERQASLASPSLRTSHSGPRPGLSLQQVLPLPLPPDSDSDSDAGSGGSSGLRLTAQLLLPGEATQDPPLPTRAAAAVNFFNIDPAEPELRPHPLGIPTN
# assay: Human 5-HT6 Receptor Binding Assay ([3H]LSD displacement, scintillation beads)
# test_settings: membranes of CHO-K1 cells with recombinant human 5-HT6, 4 nM [3H]LSD; Table 1, class symbols; read-out: h5-HT6 (Ki)
pKi: −log10 of the molar value.
Consider the following compounds; for each one, report its pKi.

Value of pKi reported for the compound Cc1c(S(=O)(=O)Nc2ccc3c(c2)C2CCNCC2O3)sc2ccc(Cl)cc12 (centres unmarked) is > 6.30

Value of pKi reported for the compound O=S(=O)(c1ccc2c(c1)C1CCNCC1O2)N1CCN(c2ccccc2)CC1 (centres unmarked) is < 6.00

Value of pKi reported for the compound CC(=O)Nc1ccc(S(=O)(=O)Oc2ccc3c(c2)OC2CNCCC32)cc1 (centres unmarked) is < 6.00

Value of pKi reported for the compound CC1(C)NCCc2c1oc1cc(S(=O)(=O)c3cccc(F)c3F)ccc21 is > 6.30

Value of pKi reported for the compound O=S(=O)(c1ccccc1)c1ccc2c(c1)OC1CNCCC21 (centres unmarked) [Example 324] is > 6.30

---

Structures can show the parent of a compound that is named as a salt.
Consider the following compounds; for each one, report its melting point.

Value of melting point reported for the compound CCCCCOc1cccc(S(=O)(=O)c2ccc3c(c2)OC2CNCCC32)c1 (centres unmarked) (as salt: HCl) is 199 to 201 °C

Value of melting point reported for the compound Cn1ccc2cccc(S(=O)(=O)c3ccc4c5c(oc4c3)CNCC5)c21 is 224 to 225 °C

Value of melting point reported for the compound O=S(=O)(c1ccc2c(c1)OC1CNCCC21)c1nc2ccccc2[nH]1 (centres unmarked) is 188 to 189 °C

Value of melting point reported for the compound O=S(=O)(c1ccc2c3c(oc2c1)CNCC3)c1cccc2nsnc12 is 242 to 243 °C

Value of melting point reported for the compound CC(=O)NCC1(C)NCCc2c1oc1cc(S(=O)(=O)c3cccc(F)c3)ccc21 (centres unmarked) [Example 492] is 140 to 155 °C (dec.)

Value of melting point reported for the compound O=S(=O)(c1cccc(OCCn2cccc2)c1)c1ccc2c(c1)OC1CNCCC21 (centres unmarked) (as salt: HCl) is 233 to 234 °C

Value of melting point reported for the compound Cc1c(OCC2CCOCC2)cccc1S(=O)(=O)c1ccc2c(c1)OC1CNCCC21 (centres unmarked) (as salt: HCl) is 201 to 202 °C

Value of melting point reported for the compound N#Cc1cccc(COc2cccc(S(=O)(=O)c3ccc4c(c3)OC3CNCCC43)c2)c1 (centres unmarked) (as salt: HCl) is 200 to 201 °C

Just for reference, patent US8765779B2 is where these values come from.
